Every entry's value here was drawn from paper PMC9103804.

Target: T1, TAV 2b (Tomato aspermy virus, UniProt Q8UYT3 1-95)
T1 sequence: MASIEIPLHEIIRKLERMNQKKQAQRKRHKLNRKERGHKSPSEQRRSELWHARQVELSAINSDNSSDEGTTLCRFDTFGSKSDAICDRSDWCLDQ
Experiment: competition; Kc vs labeled gf698
Settings: protein: recombinant; tags: His-SUMO removed; chain copies: 2; label: 5'-32P; 3' overhangs 2 nt, mismatches and G-U wobbles
Ki overview
OBSERVED PROPERTY: Ki (nM)

1) AtmiR168a (dsRNA, 5'-phosphate) RNA 1: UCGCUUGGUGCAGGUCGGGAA RNA 2: CCCGCCUUGCAUCAACUGAAU = 12.1
2) AtmiR168a variant 2 (dsRNA, 5'-phosphate) RNA 1: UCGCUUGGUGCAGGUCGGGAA RNA 2: CCCGCCUUGCACCAACUGAAU = 1.1
